# System: U-87 MG
# assay.method.text: Cancer cell growth inhibition, 72 h treatment
# Assay type: cell-based
# condition.summary: Homo sapiens, Brain U-87 MG, Hexosaminidase assay (*)
pEC50: −log10 of the molar value.
measurement.name: pEC50

1. CC(C)C[C@H](NC(=O)[C@@H]1N[C@H](c2ccccc2)[C@@H]([N+](=O)[O-])[C@@H]1c1cccs1)B(O)O	6.30
2. CC(C)C[C@H](NC(=O)[C@@H]1N[C@H](c2ccccc2)[C@@H]([N+](=O)[O-])[C@@H]1c1ccc(F)cc1)B(O)O	4.92

[A] CC(C)C[C@H](NC(=O)[C@@H]1N[C@H](c2ccccc2)[C@@H]([N+](=O)[O-])[C@@H]1c1ccco1)B(O)O
[B] CC(C)C[C@H](NC(=O)[C@@H]1N[C@H](c2ccccc2)[C@@H]([N+](=O)[O-])[C@@H]1c1ccccc1)B(O)O
[C] CC(C)C[C@H](NC(=O)[C@@H]1N[C@H](c2ccc3ccccc3c2)[C@@H]([N+](=O)[O-])[C@@H]1c1ccccc1)B(O)O
[D] CC(C)C[C@H](NC(=O)[C@@H]1CCCN1)B(O)O [MG-319, reference compound]
[E] CC(C)C[C@H](NC(=O)[C@H]1N[C@@H](c2ccccc2)[C@@H]([N+](=O)[O-])[C@@H]1c1ccccc1)B(O)O
Ascending by pEC50, please: list the compounds accordingly. Please list the labels according to the requested order.
D, B, E, C, A

* * *

# System: SK-Mel-28
# assay.method.text: Cancer cell growth inhibition, 72 h treatment
# Type: cell-based
# condition.summary: Homo sapiens, Melanoma SK-Mel-28, Alamar Blue
measurement.name: EC50 (nM)

// below: answered compounds
1. CC(C)C[C@H](NC(=O)[C@@H]1N[C@H](c2ccccc2)[C@@H]([N+](=O)[O-])[C@@H]1c1ccco1)B(O)O	800
2. CC(C)C[C@H](NC(=O)[C@@H]1N[C@H](c2ccccc2)[C@@H]([N+](=O)[O-])[C@@H]1c1cccs1)B(O)O	1600
3. CC(C)C[C@H](NC(=O)[C@@H]1CCCN1)B(O)O [MG-319, reference compound]	10000
4. CC(C)C[C@H](NC(=O)[C@@H]1N[C@H](c2ccccc2)[C@@H]([N+](=O)[O-])[C@@H]1c1ccc(F)cc1)B(O)O	13000
5. CC(C)C[C@H](NC(=O)[C@H]1N[C@@H](c2ccccc2)[C@@H]([N+](=O)[O-])[C@@H]1c1ccccc1)B(O)O	780

[I] CC(C)C[C@H](NC(=O)[C@@H]1N[C@H](c2ccc3ccccc3c2)[C@@H]([N+](=O)[O-])[C@@H]1c1ccccc1)B(O)O
[II] CC(C)C[C@H](NC(=O)[C@@H]1N[C@H](c2ccccc2)[C@@H]([N+](=O)[O-])[C@@H]1c1ccccc1)B(O)O
Could you tell me which of these two has the smaller EC50 figure? First: I Second: II // caller expects the label of the chosen entry
I
(I: 620 nM, II: 1300 nM)

* * *

# System: HT-1080
# assay.method.text: Cancer cell growth inhibition, 72 h treatment
# Format: cell-based
# condition.summary: Homo sapiens, Fibrosarcoma HT-1080, Alamar Blue
measurement.name: EC50 (nM)

// below: answered molecules
1. CC(C)C[C@H](NC(=O)[C@@H]1N[C@H](c2ccccc2)[C@@H]([N+](=O)[O-])[C@@H]1c1cccs1)B(O)O	1400
2. CC(C)C[C@H](NC(=O)[C@@H]1N[C@H](c2ccccc2)[C@@H]([N+](=O)[O-])[C@@H]1c1ccccc1)B(O)O	1700
3. CC(C)C[C@H](NC(=O)[C@@H]1N[C@H](c2ccccc2)[C@@H]([N+](=O)[O-])[C@@H]1c1ccco1)B(O)O	890
4. CC(C)C[C@H](NC(=O)[C@@H]1CCCN1)B(O)O [MG-319, reference compound]	8900

[a] CC(C)C[C@H](NC(=O)[C@H]1N[C@@H](c2ccccc2)[C@@H]([N+](=O)[O-])[C@@H]1c1ccccc1)B(O)O
[b] CC(C)C[C@H](NC(=O)[C@@H]1N[C@H](c2ccc3ccccc3c2)[C@@H]([N+](=O)[O-])[C@@H]1c1ccccc1)B(O)O
Could you tell me which of these two has the smaller EC50 figure? First: a Second: b // caller expects the label of the chosen entry
b
